Tested on: Bacillus subtilis PY79
Test: Antibacterial growth inhibition assay (serial dilution, colorimeter at 600 nm), B. subtilis PY79
Assay type: cell-based
Settings: Bacillus subtilis, PY79; concentration of inhibition at 90%; Table 2; read-out: MIC90 B. subtilis PY79
Readout Kind: MIC90 (µg/mL)

- Compound: "CCN1CC[C@@H](CN(Cc2ccccc2)Cc2ccccc2C)OC1=O [Compound A17]"
  Assay Value: 59.5

1 = CCN1CC[C@@H](CN(Cc2ccccc2)Cc2cccc3ccccc23)OC1=O [Compound A13]
2 = CCN1CC[C@@H](CN(Cc2ccccc2)Cc2ccc(Cl)c(Cl)c2)OC1=O [Compound A11]
Would you kindly point out which of 1 and 2 has the smaller MIC90 figure? Respond using the label that marks the chosen record. 2
(2: 7.44 µg/mL, 1: 30 µg/mL)
